# assayTarget: NprR(ΔHTH)(R126A) (B. thuringiensis strain 407)
# assay: ITC
measurementKind: pKd
In simple prose, pKd is minus the logarithm base ten of a concentration in moles per litre.

Task: Which measured pKd value corresponds to NprX7 heptapeptide SKPDIVG ?
Result: 6.19
